Tested on: Staphylococcus aureus
Assay: Antimicrobial activity against methicillin-resistant Staphylococcus aureus 75 after 18 hrs by broth microdilution method
Assay type: functional
Residues, ends and D or L forms follow the SMILES beside them. *: point of attachment. Myristoyl = CCCCCCCCCCCCCC(=O)*; Decanoyl = CCCCCCCCCC(=O)*; Octanoyl = CCCCCCCC(=O)*
Quantity: MIC (µM)
# number only, unit µM dropped from output

Worked set:
CCCCCCCCCCCCCC(=O)N[C@@H](CCCNC(=N)N)C(=O)N[C@@H](CCCNC(=N)N)C(=O)N[C@@H](CCCNC(=N)N)C(N)=O (Myristoyl-Arg-Arg-Arg-NH2)
8
CCCCCCCCCCCCCC(=O)N[C@@H](CCCNC(=N)N)C(=O)N[C@@H](Cc1c[nH]c2ccccc12)C(=O)N[C@@H](Cc1c[nH]c2ccccc12)C(N)=O (Myristoyl-Arg-Trp-Trp-NH2)
4
CCCCCCCCCC(=O)N[C@@H](CCCNC(=N)N)C(=O)N[C@@H](Cc1c[nH]c2ccccc12)C(=O)N[C@@H](CCCNC(=N)N)C(N)=O (Decanoyl-Arg-Trp-Arg-NH2)
16

Alright, here's another compound for you.
Exam item: Would you kindly share the measured MIC for CCCCCCCC(=O)N[C@@H](CCCNC(=N)N)C(=O)N[C@@H](Cc1c[nH]c2ccccc12)C(=O)N[C@@H](Cc1c[nH]c2ccccc12)C(N)=O (Octanoyl-Arg-Trp-Trp-NH2) ?
Marked response: 8

----------
MIC listing for selected compounds.
Test system: Staphylococcus epidermidis
Test: Antimicrobial activity against Staphylococcus epidermidis ATCC 12228 after 18 hrs by broth microdilution method
Format: functional
Residues, ends and D or L forms follow the SMILES beside them. *: point of attachment. Stearoyl = CCCCCCCCCCCCCCCCCC(=O)*; Myristoyl = CCCCCCCCCCCCCC(=O)*
# number only, unit µM dropped from output

Worked set:
CCCCCCCCCCCCCC(=O)N[C@@H](CCCNC(=N)N)C(=O)N[C@@H](Cc1c[nH]c2ccccc12)C(=O)N[C@@H](CCCNC(=N)N)C(N)=O (Myristoyl-Arg-Trp-Arg-NH2)
4
CCCCCCCCCCCCCCCCCC(=O)N[C@@H](CCCNC(=N)N)C(=O)N[C@@H](CCCNC(=N)N)C(=O)N[C@@H](Cc1c[nH]c2ccccc12)C(N)=O (Stearoyl-Arg-Arg-Trp-NH2)
4

Exam item: Would you kindly share the measured MIC for CCCCCCCCCCCCCC(=O)N[C@@H](CCCNC(=N)N)C(=O)N[C@@H](CCCNC(=N)N)C(=O)N[C@@H](CCCNC(=N)N)C(N)=O (Myristoyl-Arg-Arg-Arg-NH2) ?
Marked response: 8

----------
Assay: Therapeutic index, ratio of MHC for mouse RBC to geometric mean of peptide MIC for Staphylococcus epidermidis ATCC 12228
Assay type: toxicity
Conditions: pooled result: one value given for 6 cell lines, strains, targets or settings, read-out: TI
Residues, ends and D or L forms follow the SMILES beside them. *: point of attachment. Myristoyl = CCCCCCCCCCCCCC(=O)*; Lauroyl = CCCCCCCCCCCC(=O)*; Decanoyl = CCCCCCCCCC(=O)*; Octanoyl = CCCCCCCC(=O)*
Quantity: selectivity ratio
Answer with the value's number alone.

Worked set:
CCCCCCCCCCCC(=O)N[C@@H](CCCNC(=N)N)C(=O)N[C@@H](CCCNC(=N)N)C(=O)N[C@@H](Cc1c[nH]c2ccccc12)C(N)=O (Lauroyl-Arg-Arg-Trp-NH2)
34.9
CCCCCCCCCC(=O)N[C@@H](CCCNC(=N)N)C(=O)N[C@@H](Cc1c[nH]c2ccccc12)C(=O)N[C@@H](CCCNC(=N)N)C(N)=O (Decanoyl-Arg-Trp-Arg-NH2)
3.43
CCCCCCCC(=O)N[C@@H](CCCNC(=N)N)C(=O)N[C@@H](Cc1c[nH]c2ccccc12)C(=O)N[C@@H](CCCNC(=N)N)C(N)=O (Octanoyl-Arg-Trp-Arg-NH2)
3.69
CCCCCCCC(=O)N[C@@H](Cc1c[nH]c2ccccc12)C(=O)N[C@@H](CCCNC(=N)N)C(=O)N[C@@H](CCCNC(=N)N)C(N)=O (Octanoyl-Trp-Arg-Arg-NH2)
5.65

Alright, here's another compound for you.
Exam item: Would you kindly share the measured selectivity ratio for CCCCCCCCCCCCCC(=O)N[C@@H](CCCNC(=N)N)C(=O)N[C@@H](Cc1c[nH]c2ccccc12)C(=O)N[C@@H](CCCNC(=N)N)C(N)=O (Myristoyl-Arg-Trp-Arg-NH2) ?
Marked response: 10.7
